- experiment-summary: Specific activity of purified CHI, absorbance decrease at 384 nm, homoeriodictyol chalcone; note: unit not given here
- Format: biochemical
- experimental-conditions: purified CHI in 50 mM PBS, 100 μM substrate, 25° C.
property-measured: Specific activity, Homoeriodctiol chalcone

Record summary for CHIera Mut8: Chalcone isomerase variant 8 from Eubacterium ramulus, genetically engineered (protein, listed as Eubacterium ramulus) MADFKFEPMRSLIYVDCVSEDYRPKLQRWIYKVHIPDSISKFEPYVTKYAFYPSFPIPPQGDRFGYARMQLTEHHWLVSPLDPRLEINAIAETFPMDVLVWQGQIPAAAHTDAQIDSDGDAGEAARKSNNAEGNPFIFAFLPMWWEKDLKGKGRTIEDGANYRFNMTIGFPEGVDKAEGEKWLFEKVVPILQAAPECTRVLASAVKKDINGCVMDWVLEIWFENQSGWYKVMVDDMKALEKPSWAQQDAFPFLKPYHNVCSAAVADYTPSNNLANYRGYITMR : reported Specific activity, Homoeriodctiol chalcone = 21.2
